# pIC50 against HPK1 (Homo sapiens (Human)), merged from multiple literature sources
# Sequence (Q92918 whole entry): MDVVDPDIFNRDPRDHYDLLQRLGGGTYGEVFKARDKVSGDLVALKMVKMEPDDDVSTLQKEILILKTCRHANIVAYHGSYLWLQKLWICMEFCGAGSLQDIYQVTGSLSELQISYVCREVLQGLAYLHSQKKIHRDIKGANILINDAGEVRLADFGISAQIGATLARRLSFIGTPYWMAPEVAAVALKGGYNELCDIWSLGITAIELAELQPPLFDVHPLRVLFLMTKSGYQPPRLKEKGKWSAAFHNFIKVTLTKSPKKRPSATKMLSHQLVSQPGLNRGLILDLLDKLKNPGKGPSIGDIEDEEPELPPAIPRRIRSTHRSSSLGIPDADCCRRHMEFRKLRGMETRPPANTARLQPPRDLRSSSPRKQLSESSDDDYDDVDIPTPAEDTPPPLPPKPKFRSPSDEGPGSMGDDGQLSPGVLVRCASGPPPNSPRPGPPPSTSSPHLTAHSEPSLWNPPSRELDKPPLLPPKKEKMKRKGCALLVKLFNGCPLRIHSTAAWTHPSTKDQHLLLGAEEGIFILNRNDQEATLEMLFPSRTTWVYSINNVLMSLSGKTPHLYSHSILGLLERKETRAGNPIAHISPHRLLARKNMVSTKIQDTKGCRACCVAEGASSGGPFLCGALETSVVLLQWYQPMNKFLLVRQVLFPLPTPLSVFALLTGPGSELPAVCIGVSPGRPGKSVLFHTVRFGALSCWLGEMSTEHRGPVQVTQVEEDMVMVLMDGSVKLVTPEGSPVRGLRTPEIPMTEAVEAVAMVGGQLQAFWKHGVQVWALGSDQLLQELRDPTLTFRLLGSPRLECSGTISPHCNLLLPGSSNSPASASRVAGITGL
pIC50: −log10 of the molar value.

{"compound": "CC(C)NCc1nc(Nc2ccc(-c3cnc4cc(F)ccn34)c3c2C(=O)NC3)ccc1[C@H]1CCOC1", "pIC50": "> 7.00"}
{"compound": "Cn1ccc2c(-c3ncc(Nc4cccc(C5CNC5)n4)c4c3CNC4=O)ccnc21", "pIC50": "> 7.00"}
{"compound": "CN1CCc2cc(Cl)c(Nc3ncc(C(N)=O)c(Nc4cccc5c4CCNC5=O)n3)cc2C1", "pIC50": 9.43}
{"compound": "Cn1ccc2c(-c3ccc(Nc4ccc(N5CCC(O)CC5)cn4)c4c3CNC4=O)cccc21", "pIC50": "> 7.00"}
{"compound": "COc1nc2c(cc1Nc1ncc3cccc(C4CCOCC4)c3n1)CN(C)CC2", "pIC50": 8.81}

Consider `C[C@H](OC1CCC1)c1ccc(Nc2ccc(-c3cnc4cnccn34)c3c2C(=O)NC3)nc1CN(C)C` . Its measured pIC50 is ≥ 7.00

Consider `Cn1ccc2c(-c3c(Cl)cc(Nc4ccc(N5CCC(O)CC5)cn4)c4c3CNC4=O)ccnc21` . Its measured pIC50 is > 7.00
